Target: EP2 subtype of the human PGE2 receptor (Homo sapiens, UniProt P43116)
Sequence (P43116 whole entry): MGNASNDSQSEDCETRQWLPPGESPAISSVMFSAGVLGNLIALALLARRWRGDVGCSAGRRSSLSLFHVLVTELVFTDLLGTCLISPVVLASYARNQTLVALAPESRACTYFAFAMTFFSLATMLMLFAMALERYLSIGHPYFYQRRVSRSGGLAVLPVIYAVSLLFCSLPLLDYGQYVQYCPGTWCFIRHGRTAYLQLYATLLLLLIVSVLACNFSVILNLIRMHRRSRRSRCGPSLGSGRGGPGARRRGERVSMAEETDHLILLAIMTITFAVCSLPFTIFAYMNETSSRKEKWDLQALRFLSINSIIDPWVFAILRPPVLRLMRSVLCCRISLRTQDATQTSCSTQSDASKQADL
Assay: cAMP antagonism test on the human EP2 receptor (HTRF cAMP detection)
Assay type: cell-based
Conditions: hEP2 receptor, read-out: Antagonism hEP2 IC50
Each entry falls into one class according to its IC50; the ranges are low band: < 0.02 µM; middle band: ≥ 0.02 µM and < 0.08 µM; high band: ≥ 0.08 µM

Some solved cases for reference:
1. Cc1c(C(=O)NCC(F)(F)F)ccc2nn(CC3CCN(C(=O)c4ccc(Oc5ccc(Cl)cn5)cc4)CC3)cc12	high band
2. COCCNC(=O)c1ccc2nn(C[C@H]3CCN(C(=O)c4ccc(Cl)cc4)C3)cc2c1C	middle band
3. Cc1c(C(=O)NCC(F)(F)F)ccc2nn(CC3CCN(C(=O)c4ncc(-c5ccccc5)o4)CC3)cc12	middle band
4. COCCNC(=O)c1ccc2nn(CC3CN(C(=O)c4cc5cc(Cl)ccc5n4C)C3)cc2c1C	low band
5. Cc1c(C(=O)NCCN2CCOCC2)ccc2nn(CC3CCN(C(=O)c4cccc(S(F)(F)(F)(F)F)c4)CC3)cc12	high band
6. CCNC(=O)c1ccc2nn(CC3CCN(C(=O)c4ccc(Cl)cc4)CC3)cc2c1C	high band
7. Cc1c(C(=O)NCCS(C)(=O)=O)ccc2nn(CC3CCN(C(=O)c4ccc(Oc5ccc(C(F)(F)F)cn5)cc4)CC3)cc12	low band
8. Cc1c(C(=O)NCCS(C)(=O)=O)ccc2nn(CC3CCN(C(=O)c4ccc(-c5ccc(F)cc5F)cc4)CC3)cc12	low band

Input line: Tag the class for COCCNC(=O)c1ccc2nn(CC3CCN(C(=O)c4ccc(-c5ccccc5F)cc4)CC3)cc2c1C
Output line: low band

----------
Target: human PGD receptor (Homo sapiens, UniProt Q13258)
Sequence (Q13258 whole entry): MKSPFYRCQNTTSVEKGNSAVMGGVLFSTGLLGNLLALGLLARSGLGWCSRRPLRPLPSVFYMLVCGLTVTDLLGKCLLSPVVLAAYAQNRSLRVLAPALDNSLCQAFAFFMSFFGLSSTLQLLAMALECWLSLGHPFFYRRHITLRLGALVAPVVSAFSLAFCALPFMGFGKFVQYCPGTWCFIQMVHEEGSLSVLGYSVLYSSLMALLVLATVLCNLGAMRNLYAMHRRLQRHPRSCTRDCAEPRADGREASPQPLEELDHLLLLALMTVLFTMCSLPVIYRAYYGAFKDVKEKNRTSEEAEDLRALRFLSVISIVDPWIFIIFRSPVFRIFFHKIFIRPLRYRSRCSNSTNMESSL
Assay: cAMP antagonism test on the human prostaglandin D receptor (HTRF cAMP detection)
Type: cell-based
Settings: selectivity towards hDP, IC50 measured by cAMP antagonism test
MEASURED PROPERTY: Selectivity hEP2/hDP

Worked examples, 5 compounds total:
1. CCOCCNC(=O)c1ccc2nn(CC3CN(C(=O)c4ccc(Cl)cc4)C3)cc2c1OC [Example 259]	xxx (xxx > 100)
2. Cc1cc2nn(CC3CCN(C(=O)c4cccc(S(F)(F)(F)(F)F)c4)CC3)cc2cc1C(=O)NCCN1CCOCC1 [Example 81]	xx (xx: 10-100)
3. Cc1c(C(=O)NCC(F)(F)F)ccc2nn(CC3CN(C(=O)c4ccc(Oc5ccc(C(F)(F)F)cn5)cc4)C3)cc12 [Example 177]	xxx (xxx > 100)
4. COC(C)CNC(=O)c1ccc2nn(CC3CN(C(=O)c4ccc(Oc5ccc(F)cc5)cc4)C3)cc2c1C (racemic) [Example 147]	xxx (xxx > 100)
5. COCCNC(=O)c1ccc2nn(CC3CCN(C(=O)c4ccc(Oc5ccncc5)cc4)CC3)cc2c1C [Example 51]	xxx (xxx > 100)

Input line: // fetch human PGD receptor (Homo sapiens, UniProt Q13258) Selectivity hEP2/hDP for Cc1cc2nn(CC3CN(C(=O)c4ccc(OC(F)(F)F)cc4)C3)cc2cc1C(=O)NCCOC(F)(F)F [Example 196]
Output line: xxx (xxx > 100)

Input line: Another compound to check: Cc1cc2nn(CC3CN(C(=O)c4ccc(OC(F)(F)F)cc4)C3)cc2cc1C(=O)NCC(F)(F)F [Example 195]
Output line: xx (xx: 10-100)

Input line: And for COCCNC(=O)c1ccc2nn(CC3CCN(C(=O)c4ccc(Oc5ccc(C(N)=O)cc5)cc4)CC3)cc2c1C [Example 30] ?
Output line: xxx (xxx > 100)

Input line: Same question for COCCNC(=O)c1ccc2nn(CC3CCN(C(=O)c4ccc(-c5ccccc5)c(C)c4)CC3)cc2c1C [Example 394] please.
Output line: xxx (xxx > 100)

Input line: Proceed to Cc1cc2nn(CC3CCN(C(=O)c4cccc(OC(F)(F)F)c4)CC3)cc2cc1C(=O)NCCN1CCOCC1 [Example 76]
Output line: xx (xx: 10-100)

Input line: Next up: Cc1c(C(=O)NCCOC(F)(F)F)ccc2nn(CC3CCN(C(=O)c4ccc(-c5ccc(F)cc5)cc4)CC3)cc12 [Example 109]
Output line: xxx (xxx > 100)

Input line: # iterate: Cc1c(C(=O)NCC2CCCCO2)ccc2nn(CC3CN(C(=O)c4ccc(Cl)cc4)C3)cc12 (single isomer, unassigned) [Example 146]
Output line: xxx (xxx > 100)

Input line: Query CCNC(=O)c1ccc2nn(CC3CCN(C(=O)c4ccc(Cl)cc4)CC3)cc2c1C [Example 242] next
Output line: xx (xx: 10-100)

Input line: And the next one, COCCNC(=O)c1ccc2nn(C[C@@H]3CCN(C(=O)c4ccc(S(F)(F)(F)(F)F)cc4)C3)cc2c1C [Example 219] ?
Output line: xx (xx: 10-100)

Input line: # repeat for Cc1c(C(=O)NCCOC(C)C)ccc2nn(CC3CCN(C(=O)c4ccc(Cl)cc4)CC3)cc12 [Example 96]
Output line: xxx (xxx > 100)

Input line: # iterate: COCCNC(=O)c1ccc2nn(CC3CCN(C(=O)c4ccc(-c5ccc(Cl)cc5F)cc4)CC3)cc2c1C [Example 383]
Output line: xxx (xxx > 100)

----------
Molecular target: EP2 subtype of the human PGE2 receptor (Homo sapiens)
Experiment: cAMP antagonism test on the human EP2 receptor (HTRF cAMP detection)
Format: cell-based
Conditions: hEP2 receptor, read-out: Antagonism hEP2 IC50
MEASURED PROPERTY: IC50 (nM)
Supply the numeric figure in nM, leaving out any unit text.

Use the examples below as a reference point.
1) Cc1c(C(=O)NCCS(C)(=O)=O)ccc2nn(CC3CCN(C(=O)c4ccc(Cl)cc4)CC3)cc12 [Example 244]	44.2
2) COCCNC(=O)c1ccc2nn(CC3CCN(C(=O)c4ccc(N5CCCC5)cc4F)CC3)cc2c1C [Example 41]	5.62
3) COCCNC(=O)c1ccc2nn(C[C@H]3CCN(C(=O)c4ccc(-c5ccc(F)cc5)cc4)C3)cc2c1C [Example 223]	20

The record that follows has no IC50 shown yet.
Input line: Query for EP2 subtype of the human PGE2 receptor (Homo sapiens): what IC50 does the record show for Cc1cc2nn(CC3CN(C(=O)c4ccc(S(F)(F)(F)(F)F)cc4)C3)cc2cc1C(=O)NCC(F)(F)F [Example 188] ?
Output line: 149

----------
Item-by-item account of IC50
Target: UniProt:P43116
Test: cAMP antagonism test on the human EP2 receptor (HTRF cAMP detection)
Assay type: cell-based
Details: hEP2 receptor, read-out: Antagonism hEP2 IC50
Give the number; nM is assumed, so skip it.

Worked set:
1. COCCNC(=O)c1ccc2nn(CC3CCN(C(=O)c4ccc(Oc5ccc(C(N)=O)cc5)cc4)CC3)cc2c1C	64.3
2. COCCNC(=O)c1ccc2nn(CC3CCN(C(=O)c4ccc(-c5ccc(C(F)(F)F)nc5)cc4)CC3)cc2c1C	6.58

Input line: What measured IC50 goes with Cc1c(C(=O)NCC(C)OC2CCC2)ccc2nn(CC3CN(C(=O)c4ccc(Cl)cc4)C3)cc12 (single isomer, unassigned) [Example 155] ?
Output line: 29.4

----------
Molecular target: human PGD receptor (Homo sapiens, UniProt Q13258)
Assay: cAMP antagonism test on the human prostaglandin D receptor (HTRF cAMP detection)
Type: cell-based
Conditions: selectivity towards hDP, IC50 measured by cAMP antagonism test
Description: 3. Detection of Antagonism to the Human Prostaglandin D Receptor Signal The binding of prostaglandin D2 to the human PGD receptor induces the activation of membrane-located adenylate cyclases and leads to the formation of cAMP. […] In this test, the cAMP present in the lysate competes with a fluorescence-labelled cAMP (cAMP-d2) for binding to an Eu cryptate-labelled anti-cAMP antibody. […]
MEASURED PROPERTY: Selectivity hEP2/hDP

1. Cc1c(C(=O)NCC(F)(F)F)ccc2nn(CC3CCN(C(=O)c4ccc(Oc5cccc(C(F)(F)F)n5)cc4)CC3)cc12	xxx (xxx > 100)
2. COCCNC(=O)c1ccc2nn(CC3CCN(C(=O)c4ccc(-c5ccc(OC)cc5F)cc4F)CC3)cc2c1C	xxx (xxx > 100)
3. Cc1c(C(=O)NCC2COCCO2)ccc2nn(CC3CCN(C(=O)c4ccc(Oc5ccc(C(F)(F)F)cc5)cc4)CC3)cc12 (single isomer, unassigned) [Example 419]	xxx (xxx > 100)
4. COCCNC(=O)c1cc2cn(CC3CN(C(=O)c4ccc(Cl)cc4)C3)nc2cc1C	xxx (xxx > 100)
5. Cc1c(C(=O)NCC(C)OCC2CC2)ccc2nn(CC3CCN(C(=O)c4ccc(Cl)cc4)CC3)cc12 (racemic)	xx (xx: 10-100)

Input line: Item Cc1c(C(=O)NCCN2CCOCC2)ccc2nn(CC3CCN(C(=O)c4ccc(Cl)cc4)CC3)cc12 has what recorded Selectivity hEP2/hDP?
Output line: xx (xx: 10-100)

Input line: Now consider COCCNC(=O)c1ccc2nn(CC3CCN(C(=O)c4ccc(-c5ccccc5)c(F)c4)CC3)cc2c1C .
Output line: xxx (xxx > 100)

Input line: Now give it for COCCNC(=O)c1ccc2nn(CC3CCN(C(=O)c4ccc(-n5ccnc5)cc4)CC3)cc2c1C too.
Output line: xxx (xxx > 100)
